- Species on record: Rattus norvegicus
- testMethodNotes: Open TG-GATES - Regimen: Single
- Format: toxicity, organism-based, Sprague-Dawley
- Parameters: regimen Single, gender Male, age 6 weeks
- assayConditions: in vivo, po, 100 mg/kg, 9 h, tissue Plasma, route gavage, dose level Low
Give YES when the value for TG is at least 40 mg/dL. Give NO when it is less.

COC(=O)C1=C(C)NC(C)=C(C(=O)OC)C1c1ccccc1[N+](=O)[O-]: NO
CN/C(=N/CCSCc1nc[nH]c1C)NC#N: YES
O=C(OC[C@H]1O[C@@H](OC(=O)c2cc(O)c(O)c(OC(=O)c3cc(O)c(O)c(O)c3)c2)[C@H](OC(=O)c2cc(O)c(O)c(OC(=O)c3cc(O)c(O)c(O)c3)c2)[C@@H](OC(=O)c2cc(O)c(O)c(OC(=O)c3cc(O)c(O)c(O)c3)c2)[C@@H]1OC(=O)c1cc(O)c(O)c(OC(=O)c2cc(O)c(O)c(O)c2)c1)c1cc(O)c(O)c(OC(=O)c2cc(O)c(O)c(O)c2)c1: NO

Request: Given the entry "CNC(=C[N+](=O)[O-])NCCSCc1ccc(CN(C)C)o1" , answer whether its TG meets or surpasses 40 mg/dL.
Response: NO

Request: Given the entry "Cc1nnc2n1-c1ccc(Cl)cc1C(c1ccccc1Cl)=NC2" , answer whether its TG meets or surpasses 40 mg/dL.
Response: YES

All figures here come from ChEMBL document CHEMBL3885861.
